# STUDY_TARGET: AR protein in VCaP cells (Homo sapiens, UniProt P10275)
# Construct: endogenous in cells; host or cells: VCaP cells
# Sequence (P10275 1-920): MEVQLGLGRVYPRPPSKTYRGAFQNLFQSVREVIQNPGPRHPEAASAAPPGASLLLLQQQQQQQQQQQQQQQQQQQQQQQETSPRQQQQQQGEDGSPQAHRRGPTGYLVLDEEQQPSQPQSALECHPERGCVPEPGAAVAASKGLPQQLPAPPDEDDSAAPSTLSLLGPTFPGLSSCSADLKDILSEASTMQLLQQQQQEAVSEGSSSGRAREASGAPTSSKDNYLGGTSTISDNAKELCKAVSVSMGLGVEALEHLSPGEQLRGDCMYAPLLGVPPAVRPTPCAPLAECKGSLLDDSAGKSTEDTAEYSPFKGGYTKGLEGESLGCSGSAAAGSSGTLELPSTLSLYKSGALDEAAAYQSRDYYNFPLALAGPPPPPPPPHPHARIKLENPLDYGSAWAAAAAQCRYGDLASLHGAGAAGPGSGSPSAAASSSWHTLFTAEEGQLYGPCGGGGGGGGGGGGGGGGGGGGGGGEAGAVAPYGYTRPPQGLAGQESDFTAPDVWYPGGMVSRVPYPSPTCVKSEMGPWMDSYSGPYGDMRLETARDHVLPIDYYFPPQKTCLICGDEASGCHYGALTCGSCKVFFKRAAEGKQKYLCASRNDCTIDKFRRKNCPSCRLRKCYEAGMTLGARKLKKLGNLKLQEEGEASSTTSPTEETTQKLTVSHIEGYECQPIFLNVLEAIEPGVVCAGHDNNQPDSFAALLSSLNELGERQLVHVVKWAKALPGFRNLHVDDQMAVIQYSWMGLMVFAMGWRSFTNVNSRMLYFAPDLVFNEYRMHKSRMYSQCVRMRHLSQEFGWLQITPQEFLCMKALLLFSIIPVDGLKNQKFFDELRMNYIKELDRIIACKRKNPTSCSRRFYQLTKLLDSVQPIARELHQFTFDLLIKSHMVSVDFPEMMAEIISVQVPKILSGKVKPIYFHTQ
# PROCEDURE_SUMMARY: VCAP AR Degradation Assay (AR ELISA, 24 h)
# Assay type: cell-based
# EXPERIMENTAL_SETUP: AR degradation efficiency
QUANTITY_NAME: Y (lowest measured AR level normalized to DMSO control)

Solved cases below.
COMPOUND	RESULT
CCc1cc(N2C(=S)N(c3cnc(C#N)c(C(F)(F)F)c3)C(=O)C2(C)C)ccc1OCCC1CCN([C@@H](C)C(=O)Nc2cc(C#N)cc(NC3CCC(=O)NC3=O)c2)CC1 (some centres unmarked) [Cmpd 37]	* (0<Y<=25%)
CCc1cc(N2C(=S)N(c3ccc(C#N)c(C(F)(F)F)c3)C(=O)C2(C)C)ccc1OCCC1CCN(CC(=O)Nc2cc(NC3CCC(=O)NC3=O)ccc2F)CC1 (centres unmarked) [Cmpd 18]	* (0<Y<=25%)
CCc1cc(N2C(=S)N(c3ccc(C#N)c(C(F)(F)F)c3)C(=O)C2(C)C)ccc1OCCC1(F)CCN(CC(=O)Nc2cc(Cl)cc(NC3CCC(=O)NC3=O)c2)CC1 (centres unmarked) [Cmpd 90]	* (0<Y<=25%)
CCc1cc(N2C(=S)N(c3ccc(C#N)c(C(F)(F)F)c3)C(=O)C2(C)C)ccc1OCC[C@H]1CCN(CC(=O)Nc2cccc(NC3CCC(=O)NC3=O)c2)[C@H](C)C1 (some centres unmarked) [Cmpd 70]	* (0<Y<=25%)

Briefly, Y (lowest measured AR level normalized to DMSO control) measured for CC1(C)C(=O)N(c2ccc(C#N)c(C(F)(F)F)c2)C(=S)N1c1ccc(OCCC2CCN(CC(=O)Nc3cccc(NC4CCC(=O)NC4=O)c3)CC2)c(CCF)c1 (centres unmarked) [Cmpd 48] : * (0<Y<=25%)

---

# STUDY_TARGET: AR protein in VCaP cells (Homo sapiens, UniProt P10275)
# Construct: endogenous in cells; host or cells: VCaP cells
# PROCEDURE_SUMMARY: VCAP AR Degradation Assay (AR ELISA, 24 h)
# Type: cell-based
# EXPERIMENTAL_SETUP: AR degradation efficiency
# Source text: VCAP AR Degradation Assay. Test compounds were pre-dispensed into a Corning CellBind 96-well clear bottom plate (Cat #3300) using an acoustic dispenser to make a 10-point concentration series at 1:3 dilution for each compound. The final top concentration of each compound was […]. DMSO at a final concentration of 0.1% was used as a control. […] AR levels in compound-treated wells were normalized to that of DMSO control and expressed as percent of control (PoC) (y). […]
QUANTITY_NAME: Y (lowest measured AR level normalized to DMSO control)

MOLECULE	RESULT
CC(F)(F)c1cc(N2C(=S)N(c3ccc(C#N)c(C(F)(F)F)c3)C(=O)C2(C)C)ccc1OCCC1CCN(CC(=O)Nc2cc(Cl)cc(NC3CCC(=O)NC3=O)c2)CC1 (centres unmarked) [Cmpd 30]	* (0<Y<=25%)
CCc1cc(N2C(=S)N(c3ccc(C#N)c(C(F)(F)F)c3)C(=O)C23CCC3)ccc1OCCC1CCN([C@@H](C)C(=O)Nc2cccc(NC3CCC(=O)NC3=O)c2)CC1 (some centres unmarked) [Cmpd 59]	** (25%<Y<=35%)
CCc1cc(N2C(=S)N(c3ccc(C#N)c(C(F)(F)F)c3)C(=O)C2(C)C)ccc1OCCC1CCN([C@H](C)C(=O)Nc2cc(Cl)cc(NC3CCC(=O)NC3=O)c2)CC1 (some centres unmarked) [Cmpd 21]	* (0<Y<=25%)
CC1(C)C(=O)N(c2ccc(C#N)c(C(F)(F)F)c2)C(=S)N1c1ccc(OCC2CCN(CC(=O)Nc3cccc(NC4CCC(=O)NC4=O)c3)CC2)c(F)c1 (centres unmarked) [Cmpd 2]	** (25%<Y<=35%)

---

# STUDY_TARGET: AR protein in VCaP cells (Homo sapiens)
# Construct: endogenous in cells; host or cells: VCaP cells
# Sequence (P10275 1-920): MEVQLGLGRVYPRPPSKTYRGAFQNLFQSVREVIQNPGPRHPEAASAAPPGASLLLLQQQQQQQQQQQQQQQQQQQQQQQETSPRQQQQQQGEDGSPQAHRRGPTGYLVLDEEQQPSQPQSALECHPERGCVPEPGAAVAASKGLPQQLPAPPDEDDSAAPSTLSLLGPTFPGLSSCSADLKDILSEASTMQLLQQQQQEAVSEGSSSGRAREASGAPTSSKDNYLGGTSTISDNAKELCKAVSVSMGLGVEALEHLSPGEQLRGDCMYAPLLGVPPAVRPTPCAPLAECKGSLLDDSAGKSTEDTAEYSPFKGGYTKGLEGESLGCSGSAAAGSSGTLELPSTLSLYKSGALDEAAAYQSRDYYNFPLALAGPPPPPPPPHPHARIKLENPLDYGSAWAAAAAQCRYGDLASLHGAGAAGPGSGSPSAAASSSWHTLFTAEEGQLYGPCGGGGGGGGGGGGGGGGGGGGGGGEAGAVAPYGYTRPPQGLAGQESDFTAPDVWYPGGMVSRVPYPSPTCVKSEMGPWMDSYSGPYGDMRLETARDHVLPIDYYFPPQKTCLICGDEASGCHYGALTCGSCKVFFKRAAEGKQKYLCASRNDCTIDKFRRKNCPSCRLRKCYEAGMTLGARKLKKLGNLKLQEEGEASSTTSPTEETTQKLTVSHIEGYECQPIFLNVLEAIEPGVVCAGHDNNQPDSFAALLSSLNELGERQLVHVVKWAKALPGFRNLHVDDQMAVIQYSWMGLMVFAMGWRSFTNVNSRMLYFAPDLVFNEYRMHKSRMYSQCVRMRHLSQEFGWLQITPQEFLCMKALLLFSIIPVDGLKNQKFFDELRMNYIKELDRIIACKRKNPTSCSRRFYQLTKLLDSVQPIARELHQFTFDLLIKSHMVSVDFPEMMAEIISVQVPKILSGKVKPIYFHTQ
# PROCEDURE_SUMMARY: VCAP AR Degradation Assay (AR ELISA, 24 h)
# Type: cell-based
# EXPERIMENTAL_SETUP: AR degradation efficiency
# Description: VCAP AR Degradation Assay. Test compounds were pre-dispensed into a Corning CellBind 96-well clear bottom plate (Cat #3300) using an acoustic dispenser to make a 10-point concentration series at 1:3 dilution for each compound. The final top concentration of each compound was […]. DMSO at a final concentration of 0.1% was used as a control. […] AR levels in compound-treated wells were normalized to that of DMSO control and expressed as percent of control (PoC) (y). […]
QUANTITY_NAME: Y (lowest measured AR level normalized to DMSO control)

Please review the entries below; each comes with its answer.
COMPOUND	STUDY_TARGET	RESULT
CCc1cc(N2C(=S)N(c3cnc(C#N)c(C(F)(F)F)c3)C(=O)C2(C)C)ccc1OCCC1CCN(CC(=O)Nc2cc(F)cc(NC3CCC(=O)NC3=O)c2)CC1 (centres unmarked)	AR protein in VCaP cells (Homo sapiens)	* (0<Y<=25%)
CCc1cc(N2C(=S)N(c3cnc(C#N)c(C(F)(F)F)c3)C(=O)C23CCC3)ccc1OCCC1C[C@H]2CC[C@@H](C1)N2CC(=O)Nc1cc(Cl)cc(NC2CCC(=O)NC2=O)c1 (some centres unmarked)	AR protein in VCaP cells (Homo sapiens)	** (25%<Y<=35%)
CCc1cc(N2C(=S)N(c3cnc(C#N)c(C(F)(F)F)c3)C(=O)C2(C)C)ccc1OCCC1CCN(CC(=O)Nc2cc(Cl)cc(NC3CCC(=O)NC3=O)c2)CC1 (centres unmarked)	AR protein in VCaP cells (Homo sapiens)	* (0<Y<=25%)
CCc1cc(N2C(=S)N(c3cnc(C#N)c(C(F)(F)F)c3)C(=O)C2(C)C)ccc1OCC1CCN(CC(=O)Nc2cc(Cl)cc(NC3CCC(=O)NC3=O)c2)CC1 (centres unmarked)	AR protein in VCaP cells (Homo sapiens)	** (25%<Y<=35%)

Record CCc1cc(N2C(=S)N(c3cnc(C#N)c(C(F)(F)F)c3)C(=O)C23CCC3)ccc1OCCC1CCN([C@H](C)C(=O)Nc2cccc(NC3CCC(=O)NC3=O)c2)CC1 (some centres unmarked) , field Y (lowest measured AR level normalized to DMSO control): * (0<Y<=25%)
